Molecular target: D4R (Homo sapiens, UniProt P21917)
Sequence (P21917 1-419): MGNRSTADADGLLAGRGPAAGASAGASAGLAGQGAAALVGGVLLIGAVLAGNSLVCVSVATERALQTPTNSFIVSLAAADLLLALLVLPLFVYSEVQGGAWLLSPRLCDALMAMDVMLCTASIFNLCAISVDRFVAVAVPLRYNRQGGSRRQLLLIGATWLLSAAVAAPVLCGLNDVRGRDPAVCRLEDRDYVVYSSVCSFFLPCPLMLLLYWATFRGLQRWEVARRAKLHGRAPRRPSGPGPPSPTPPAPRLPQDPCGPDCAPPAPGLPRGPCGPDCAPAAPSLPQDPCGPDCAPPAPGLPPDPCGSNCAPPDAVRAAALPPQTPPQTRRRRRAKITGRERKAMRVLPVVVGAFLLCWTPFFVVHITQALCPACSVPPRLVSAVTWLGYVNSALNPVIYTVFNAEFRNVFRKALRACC
Assay: D4 β-arrestin recruitment assay (DiscoverX PathHunter, CHO-K1 cells)
Format: cell-based
Parameters: inferred from the same PathHunter system described for D1R and D5R; host or cells: CHO-K1
Settings: fold change of dopamine EC50, 50 μM compound
Output met for D4 Beta-Arrestin: DA + 50 μM PAM, Fold Change EC50 not less than 1; output not met otherwise.

Form field: D4 Beta-Arrestin: DA + 50 μM PAM, Fold Change EC50 at least 1? Entry: `Cn1c2ccccc2c(=O)c2c(=O)n(-c3ccc(Cl)cc3)c(C3CCCCC3)nc21`
not met

Form field: D4 Beta-Arrestin: DA + 50 μM PAM, Fold Change EC50 at least 1? Entry: CC(C)(C)C1CCc2c(sc(NC(=O)c3ccncc3)c2C(N)=O)C1 (stereo not shown)
met

Form field: D4 Beta-Arrestin: DA + 50 μM PAM, Fold Change EC50 at least 1? Entry: `CC(C)Cc1nc2c(c(=O)c3ccccc3n2C)c(=O)n1-c1cccc(Cl)c1`
not met

Form field: D4 Beta-Arrestin: DA + 50 μM PAM, Fold Change EC50 at least 1? Entry: Cn1c2ccccc2c(=O)c2c(=O)n(-c3ccc(Cl)cc3)c(CC3CCCCC3)nc21 [Compound 17]
met

Form field: D4 Beta-Arrestin: DA + 50 μM PAM, Fold Change EC50 at least 1? Entry: CC1CCc2c(sc(NC(=O)c3ccc4ccccc4n3)c2C(N)=O)C1 (stereo not shown)
met

Form field: D4 Beta-Arrestin: DA + 50 μM PAM, Fold Change EC50 at least 1? Entry: Cn1c2ccccc2c(=O)c2c(=O)n(-c3cccc(Cl)c3)c(CC3CCCCC3)nc21 [Compound 22]
met

Form field: D4 Beta-Arrestin: DA + 50 μM PAM, Fold Change EC50 at least 1? Entry: `Cn1c2ccccc2c(=O)c2c(=O)n(-c3ccccc3)c(C3CC3)nc21`
met

Form field: D4 Beta-Arrestin: DA + 50 μM PAM, Fold Change EC50 at least 1? Entry: CC1CCc2c(sc(NC(=O)c3cccnc3)c2C(N)=O)C1 (stereo not shown)
met

Form field: D4 Beta-Arrestin: DA + 50 μM PAM, Fold Change EC50 at least 1? Entry: CCOC(=O)c1c(NC(=O)c2cccnc2)sc2c1CCC(C(C)(C)C)C2 (stereo not shown)
met

Form field: D4 Beta-Arrestin: DA + 50 μM PAM, Fold Change EC50 at least 1? Entry: CC(C)(C)C1CCc2c(sc(NC(=O)c3ccc4ccccc4n3)c2C(N)=O)C1 (stereo not shown)
not met

Form field: D4 Beta-Arrestin: DA + 50 μM PAM, Fold Change EC50 at least 1? Entry: `COc1ccc(-n2c(C3CCCCC3)nc3c(c(=O)c4ccccc4n3C)c2=O)cc1`
met

Form field: D4 Beta-Arrestin: DA + 50 μM PAM, Fold Change EC50 at least 1? Entry: `Cc1ccc(-n2c(C3CCCC3)nc3c(c(=O)c4ccccc4n3C)c2=O)cc1`
met

Form field: D4 Beta-Arrestin: DA + 50 μM PAM, Fold Change EC50 at least 1? Entry: CC(C)(C)C1CCc2c(sc(NC(=O)c3ccccn3)c2C(N)=O)C1 (stereo not shown)
not met
